assay: NCI Yeast Anticancer Drug Screen. Data for the rad14 strain (AID 159);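 note: 0% = growth of vehicle-treated control cultures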; settings: S. cerevisiae rad14 strain growth inhibition; at 1.2 µM; stronger effect = higher value
Compounds without any hit were thinned out: in the full panel of roughly 79,000, 15% have a hit.
Let's look at some compounds and their measured growth inhibition.
Give just the number in %; leave the unit off.

Item "CC1(C2CC2)C(C#N)(C#N)C1(C#N)C#N" has what recorded growth inhibition?
4

Next: "Cc1c(C(=O)/C=C/c2ccccc2[N+](=O)[O-])[n+](=O)c2ccccc2n1[O-]"
37

Now give it for O=C(NNc1ccccc1)C(CCCCNS(=O)(=O)Cc1ccccc1)NS(=O)(=O)Cc1ccccc1 (centres undefined) too.
0

For "COc1ccc2nc3cccc([N+](=O)[O-])c3c(NCCNCCO)c2c1" then?
90

What about "N#Cc1nc(Nc2ccc(Cl)cc2)sc1N" ?
-31

Continue with COc1ccc2cc(C(C)C(=O)N3CCOC3=O)ccc2c1 (centres undefined)
-18

Would you kindly repeat that for OC1(c2ccccc2)C2CC=CC2C1(c1ccccc1)c1ccccc1 (centres undefined) ?
-3

How about "O=C(O)CNC(c1ccccc1)(c1ccccc1)c1ccccc1" ?
-2

// query: COc1ccc(C2CC(C)(N3CCCC3)Oc3cc4c(cc32)OCO4)cc1 (centres undefined)
0

Same lookup for "O=[N+]([O-])c1cccc2nc3ccccc3c(NCCCN3CCCCC3)c12" , please.
98

Now the compound "O=[N+]([O-])c1ccc(S(=O)(=O)Cc2ccccc2)c([N+](=O)[O-])c1"
7

Now consider "Cc1cc2nc3ccccc3n2c2ccccc12" and answer again.
-21

And the next one, "C=CCNC1=C2C[C@@H](C)C[C@H](OC)[C@H](O)[C@@H](C)/C=C(\C)[C@H](OC(N)=O)[C@@H](OC)/C=C\C=C(/C)C(=O)NC(=CC1=O)C2=O" ?
-73

And what about the compound "CC1=CC(=C(c2ccc(N)c(C)c2)c2ccc(N)c(C)c2)C=CC1=N" ?
0

What do you have for O=C1C(=C2CCCC2)CCC1CN1CCCCC1 (centres undefined) ?
10

Record: "CC(C)OP(=O)(OC(C)C)C(=NCCO)NNc1ccc([N+](=O)[O-])cc1"
-10

Ok, now "COc1ccc2cc3c4cc5c(cc4cc[n+]3cc2c1OC)OCO5"
18

How about this compound: "COc1ccc(N=c2cc(-c3ccccc3)oc3ccccc23)cc1"
-3

Here is the next compound: "O=C(NCCCCN(CCCNC(=O)C(F)(F)F)Cc1ccccc1)C(F)(F)F"
16

Can you check "CCN(CC)C(=S)SC(=S)N(CC)CC" next?
-31

One more compound: "COc1ccc2nc3cccc([N+](=O)[O-])c3c(NCCCCCC(=O)O)c2c1"
96

Then this compound: "Cc1ccc(NC(Nc2ccc(C)cc2C)=C(C(Cl)=C(Cl)Cl)[N+](=O)[O-])c(C)c1"
2

---

Assay: NCI Yeast Anticancer Drug Screen. Data for the rad50EPP+ strain (AID 151);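 note: 0% = growth of vehicle-treated control cultures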
Conditions: S. cerevisiae rad50 mutant strain, at 11.0 µM, stronger effect = higher value
Description: Growth inhibition of yeast strains with defined genetic alterations is measured as a screen for potential anti-cancer activity. Selected strains with alterations in DNA damage repair or cell cycle control were exposed to compounds and growth inhibition was measured relative to vehicle treated controls. The strain used in this assay is rad50EPP+
About 79,000 compounds went through this panel and 15% of them were active in at least one assay; those are over-represented in the sample as a whole.
MEASURED PARAMETER: growth inhibition (%)
The figure you give is taken to be in %; do not add the unit.

>>> value_reported("CNC(=S)N/N=C(/C)CCC/C(C)=N/NC(=S)NC")
37
>>> value_reported("CCCCN(CCCC)c1ccc(N=Nc2ccc(S(=O)(=O)O)cc2)cc1")
48
>>> value_reported("CC(C(=O)N1C(=O)N(C(=O)C(C)C(O)c2ccccc2)C2CCCCC21)C(O)c1ccccc1 (configuration not stated)")
0
>>> value_reported("O=C1C=C(NCCc2cc(Br)c(O)c(Br)c2)C(=O)c2ncccc21")
49
>>> value_reported("COc1cc(NCCCCNCC(C)(C)C)c2ncccc2c1")
-16
>>> value_reported("O=c1[nH]c2c([N+](=O)[O-])cccc2c2ccccc12")
26
>>> value_reported("COc1cc(OC)c(CSCC(NC(=O)OCC2c3ccccc3-c3ccccc32)C(=O)O)c(OC)c1 (configuration not stated)")
-1
>>> value_reported("Oc1c2c(c(O)c3ccccc13)C1(N=N2)c2ccccc2Oc2ccccc21")
93

Can you look up the measured growth inhibition of OC(Cc1cccc2ccccc12)CN1CCC(c2ccccc2)CC1 (configuration not stated) for me?
23

// repeat for COc1ccc(C(C)c2cc3c(cc2OCC(C)=O)OCO3)cc1 (configuration not stated) and report
3

Now try CC(=O)CC(c1ccccc1)c1c(O)c2ccccc2oc1=O (configuration not stated) .
-3

Likewise for O=C(Cc1ccccc1)NN1C(=O)C(Cl)C1c1cc(Br)cc(Br)c1O (configuration not stated) ?
29

Moving on to the next compound: "COc1ccc2cc3c4cc5c(cc4cc[n+]3cc2c1OC)OCO5"
60

Continue with "CC(C)OP(=O)(OC(C)C)/C(Cl)=N/Nc1ccc([N+](=O)[O-])cc1"
93

Another compound to check: "CCN(CC)CCC(=O)Nc1ccc2sc3ccccc3c(=O)c2n1"
89

Same lookup for "N#[N+]c1c([O-])c2ccccc2c2ccccc12" , please.
84

Here is the next compound: "CC(C)CCC[C@@H](C)[C@H]1CC[C@H]2[C@@H]3CC[C@H]4C[C@H](N)CC[C@]4(C)[C@H]3CC[C@]12C"
7
